- experimental_system: T1, mouse TMEM106B (mouse, UniProt Q80X71 2-275)
- T1 construct: Full-length cDNA transiently transfected into HEK293 cells; also called muTMEM106B; murine TMEM106B
- protocol_notes: flow cytometry, HEK293 cells transiently transfected with murine TMEM106B
experimental_endpoint: fold-change in binding over parental HEK293 cells

// solved cases for fold-change in binding over parental HEK293 cells follow
binder	measured_result
TM-92 (antibody, V domains shown, Purified from mouse hybridoma) VH: EVQLQQSGPELVKPGASVKIPCKASGYTFTDYTMDWVKQSPGKSLEWIGHINPNDGGTFYNQKFKGKATLTVDKSSSTAYMELRSLTSEDSAVYYCARWVYYYGISYEGGAMDYWGQGTSVTVSS VL: DVQITQSPSYLAASPGETITINCRASKSISKYLAWYQEKPGKTNKLLIYSGSTLQSGIPSRFSGSGSGTDFTLTISSLEPEDFAMYYCQQHNEYPWTFGGGTKLEIK	5.15 fold
TM-61 (antibody, V domains shown, Purified from mouse hybridoma) VH: QVQLQQSGAELAKPGASVKLSCKASGYTFTNYWMNWVKQRPGQGLEWIGYINPSSDYTKYNQNFKDKATLTADKSSSTAYMQLNSLTYEDSAVYYCTRWGGSRSYWYFDVWGAGTTVTVSS VL: DIVMTQSPSSLSASAGEKVTMSCKSSQSLLNSGNQKNYLAWYQQKPGQSPKLLIYGASTRESGVPDRFTGSGSGTDFTLTISSVQAEDLAVYYCQNDSNYPFTFGGGTKLEMK	0.68 fold
TM-60 (antibody, V domains shown, Purified from mouse hybridoma) VH: QVQLQQSGPELVKPGASVKLSCKASGYTFTSYDINWVKQRPGQGLEWIGWIYPRDGNTQYIEKLKGKATLTVDTSSSTAYMELHSLTSEDSAVYFCARWIFYAMDYWGQGTSVTVSS VL: DVLMTQTPLSLPVSLGDQASISCRSSQSIVHGNGNTYLEWYLQKPGQSPKLLIYKVSNRFSGVPDRFSGSGSGTDFTLKISRVEAEDLGVYYCFQGSHLPYTFGGGTKLEIK	0.43 fold
TM-64 (antibody, V domains shown, Purified from mouse hybridoma) VH: QVQLQQPGAELVKPGASVKLSCKASGYTFTSYWMHWVKQRPGHGLEWIGNIDPSDSDTHYNQNFRGKATLTVDKFSTTAYMHLSSLTSEDSAVYYCARSRGGTYDYGEAMDYWGQGTSVTVSS VL: DIVMTQAAPSVPVTPGESVSISCRSSKSLLHTNGNTYLFWFLQRPGRSPQLLIYRMSNLASGVPDRFSGSGSGTAFTLRISRVEAEDVGVYYCMQHLEYPFTFGSGTKLEIK	1.07 fold

Now turn to the next binder.
Problem: For the binder shown here, TM-83 (antibody, V domains shown, Purified from mouse hybridoma) VH: QVQLQQPGTELVKPGALVKLSCKASGYTFTTYWIHWVKQRPGQGLEWIGNINPSNGNTKNNERFKTKATLTVDKSSSTAYMQLSSLTSEDSAVYYCVRGDYYGTSYPFWGQGTLVTVSS VL: DVVMTQTPLSLPVSLGDQASISCRSSQSLVHSNGITYLHWYLQKPGQSPKLLIYKVSNRFSGVPDRFSGSGSGTDFTLKISRVEAEDLGVYFCSQSTHVPYTFGGGTKLEIK , give the reported fold-change in binding over parental HEK293 cells.
Solution: 9.91 fold
